System: A498 renal
protocol-notes: NCI tumour cell line growth inhibition, 48 h
Where a SMILES comes first, the peptide text is derived from it. [ ]: non-standard residue; d: D form. Ac5c = NC1(C(=O)O)CCCC1
Please provide measured TGI for the entries that follow.

compound: NC1(C(=O)NC2(C(=O)O)CCCC2)CCCC1 (H-[Ac5c]-[Ac5c]-OH)
experimental-readout: TGI
test-result: > 100 µM
//
compound: C=CC1(C(=O)O)CCC(C(C)(C)C)CC1 (stereo unspecified)
experimental-readout: TGI
test-result: > 100 µM

I would be grateful if you could provide TGI for each of the following entries.
1. COc1cc(C2SCC(=O)N2c2ccccc2Cl)cc(OC)c1OC (stereo unspecified)
2. O=[n+]1c2ccccc2n([O-])c2ccccc21
3. NOCC(=O)O
4. O=[N+]([O-])c1cccc(C2N3CCCCC3[C@@H]3c4[nH]c5ccccc5c4CCN23)c1 (stereo partly specified)

A:
1. > 100 µM
2. > 100 µM
3. > 100 µM
4. 29.5 µM

I would be grateful if you could provide TGI for each of the following entries.
1. CC(=O)N1C(=O)CC2(N=C(C)CC2=O)c2ccccc21 (stereo unspecified)
2. O=C1c2ccccc2C(O)(C(=O)O)C1(O)CC=C(Cl)Cl (stereo unspecified)
3. CC1=C2[C@@H](CC1)[C@]1(C)O[C@@](C3CCCCC3)(C[C@H]1OC(=O)CO)[C@H]2OC(=O)/C=C/c1ccccc1
4. Cc1cc([C@H](C#N)c2nc3ccccc3[nH]2)nc(Cl)n1
5. Cc1oc2c(c1C)S(=O)(=O)C(C#N)=C(c1ccccc1)N2

A:
1: > 10 µM; 2: > 125 µM; 3: 0.0731 µM; 4: > 100 µM; 5: > 100 µM

###

Tested on: NCI/ADR-RES ovarian
protocol-notes: NCI tumour cell line growth inhibition, 48 h
experimental-readout: TGI (µM)
One number for each entry, in µM.

structure-smiles: C=C1C(=O)O[C@H]2[C@H]1CC/C(CNC(=O)c1cc3cc(OC)ccc3[nH]1)=C\CC[C@@]1(C)O[C@@H]21
TGI / µM: 23.7

I would be grateful if you could provide TGI for each of the following entries.
1. COc1cc2c(cc1OCCCOc1cc3c(cc1OC)C(=O)N1C[C@H](F)C[C@H]1C=N3)N=C[C@@H]1C[C@@H](F)CN1C2=O
2. CCN1CCN(C(=O)[C@]23CC[C@@H](C)[C@H](C)[C@@H]2C2=CC[C@@H]4[C@@]5(C)C/C(=C/c6ccncc6)C(=O)C(C)(C)[C@@H]5CC[C@@]4(C)[C@]2(C)CC3)CC1
3. COc1ccc2cc(CNCCCCCCCCCCCCNCc3ccc4cc(OC)ccc4c3)ccc2c1

A:
[26, 3.69, 43]

###

Please provide measured TGI for the entries that follow.
Tested on: COLO 205 colon
protocol-notes: NCI tumour cell line growth inhibition, 48 h

Previously resolved entries follow.
molecule: COc1nc(C)nc2sc3c(c12)CCCC3
TGI: > 100 µM

molecule: O=C1c2ccccc2C(=O)N1CCCSc1ccccc1
TGI: > 100 µM

molecule: O=C1c2ccccc2C(O)(C(=O)O)C1(O)CC=C(Cl)Cl (configuration not stated)
TGI: > 125 µM

I would be grateful if you could provide TGI for each of the following entries.
1. C=C1C(=O)O[C@H]2[C@H]1CC/C(CNC(=O)c1cc3cc(OC)ccc3[nH]1)=C\CC[C@@]1(C)O[C@@H]21
2. CNc1c2cccc(C)c2nc2c(C(=O)NCCN(C)C)cccc12
3. CC(C)=CCC[C@@H](C)C1=C(O)C(O)C(C)=C2N=C(c3ccccc3)C(=O)OC21 (some centres not stated)
4. CCOC(=O)NNC(=O)C1CSC(c2ccccc2)N1C(C)=O (configuration not stated)
5. Cc1cc([C@H](C#N)c2nc3ccccc3[nH]2)nc(Cl)n1
6. C=CC1(C(=O)O)CCC(C(C)(C)C)CC1 (configuration not stated)
7. O=C1CC(NC(=O)C(F)(F)F)c2c1csc2Br (configuration not stated)

A:
["3.04 µM", "0.278 µM", "> 25 µM", "> 100 µM", "> 100 µM", "> 100 µM", "> 100 µM"]

I would be grateful if you could provide TGI for each of the following entries.
1. CC1=C(C(=O)Nc2ccccc2C)C(c2ccc(Cl)c(Cl)c2)C(C(=O)Nc2ccccc2C)=C(C)N1
2. O=[N+]([O-])c1cccc(C2N3CCCCC3[C@@H]3c4[nH]c5ccccc5c4CCN23)c1 (some centres not stated)
3. CO[C@H]1c2cccc3cccc(c23)[C@@H]1n1[nH]c(=O)n(C(C)(C)C)c1=O
4. COc1c2nc(CCl)[nH]c(=O)c2c(OC)c2nc(CCl)[nH]c(=O)c12
5. O=C(c1cc(Cl)cc(Cl)c1)N(C(=O)N1CCN(c2ccccc2)CC1)c1ccccc1
6. Cc1c(NC(=O)C(C)(C)Br)c(=O)oc2c(C)c3occc(=O)c3cc12
7. O=C1C(=O)c2c(oc(=O)c3ccccc23)-c2ccccc21
8. COc1ccc(CN(C)c2ccc(CO)c(Cl)c2)cc1

A:
30 µM
32.8 µM
> 100 µM
> 100 µM
39.6 µM
> 100 µM
> 25 µM
17.5 µM
